subject_of_test: Gal(b1-3)GlcNAc(b1-2)Man
assay_notes: glycan array binding signal (z-score within array); higher = stronger binding
conditions_used: glycan notation: IUPAC condensed, linker removed
The entries come from a sample that favours the strongest signals as a whole.
Quick rule for you: glycan array binding signal (z-score) at 0.05 or higher means Condition met, lower means Condition not met.

- binder: "Apa (Mycobacterium tuberculosis), Rv1860 (protein) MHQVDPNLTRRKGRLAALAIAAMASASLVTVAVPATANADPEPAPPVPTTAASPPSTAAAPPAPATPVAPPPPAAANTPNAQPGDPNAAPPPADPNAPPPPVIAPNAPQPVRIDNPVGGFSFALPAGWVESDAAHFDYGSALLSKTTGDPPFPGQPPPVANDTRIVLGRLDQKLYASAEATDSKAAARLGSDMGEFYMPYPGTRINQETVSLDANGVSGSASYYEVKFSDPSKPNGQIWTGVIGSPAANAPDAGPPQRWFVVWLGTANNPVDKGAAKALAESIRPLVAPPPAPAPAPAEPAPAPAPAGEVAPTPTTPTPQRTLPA"
  group: "Condition met"
- binder: "Epa15 (Candida glabrata) (protein) MGSSHHHHHHSSGLVPRGSHMASDPTTFPLGCSPEFTKTKKGLSMELYRYDYLPPGSYPCWDSAYLNPSYPRTGYKAKKLIATVDGVSGDINFKFNPKFGCKAIPDYLPSNFNYHEPITITNFTMILYGYFMPKTTAFHTFYVTADDLLFMNFGAGNAFDCCRREETADKFGNYAAYSVWGKKSLKNELTVYLHTGVYYPIRLFYNNRDYIAQLDIRFKTEHSNAIITNFTDYFYSVDDSSLGCPGLI"
  group: "Condition met"
- binder: "CBM40 CPF071 (Clostridium perfringens) (protein) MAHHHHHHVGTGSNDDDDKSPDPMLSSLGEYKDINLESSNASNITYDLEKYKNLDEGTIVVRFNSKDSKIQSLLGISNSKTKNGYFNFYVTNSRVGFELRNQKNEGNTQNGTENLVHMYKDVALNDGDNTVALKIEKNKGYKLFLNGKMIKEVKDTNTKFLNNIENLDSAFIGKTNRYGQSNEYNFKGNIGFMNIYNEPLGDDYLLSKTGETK"
  group: "Condition not met"
- binder: "PfulAvr4 2 (Pseudocercospora fuligena) (protein) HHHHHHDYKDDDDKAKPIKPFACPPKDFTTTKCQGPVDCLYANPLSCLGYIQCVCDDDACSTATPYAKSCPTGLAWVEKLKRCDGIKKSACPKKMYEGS"
  group: "Condition not met"
- binder: "Aap lectin (Staphylococcus epidermidis) (protein) VNLNYSSPFMSLLSMPADSSSNNTKNTIDIPPTTVKGRDNYDFYGRVDIESNPTDLNATNLTRYNYGQPPGTTTAGAVQFKNQVSFDKDFDFNIRVANNRQSNTTGADGWGFMFSKKDGDDFLKNGGILREKGTPSAAGFRIDTGYYNNDPLDKIQKQAGQGYRGYGTFVKNDSQGNTSKVGSGTPSTDFLNYADNTTNDLDGKFHGQKLNNVNLKYNASNQTFTATYAGKTWTATLSELGLSPTDSYNFLVTSS"
  group: "Condition met"
